- Test system: CEM cells HIV-1 protection, formazan growth assay
- test.summary: NCI AIDS Antiviral Assay;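 active = compounds giving half or more protection of infected cells from virus-caused growth loss, again on retest; inactive = the rest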
I would appreciate it if you answered using one of these outcomes: active, inactive

Lookup: Fill in: this test's call for CC(=O)c1c2c(cc3c1CC1(Cc4cc5c(cc4C1=O)CCC5)C3)CCC2 (stereo unspecified) is ___
Found: inactive

Lookup: Any idea what this test logged for O=C1Nc2ccccc2C12CCNC2Cc1ccccc1 (stereo unspecified) ?
Found: inactive

Lookup: So what was the verdict on OCCN=C1Nc2ccc(Cl)cc2C(=S)N2CSC[C@@H]12 in this test?
Found: inactive

Lookup: How did this test come out for C=CC(C)(C)n1cc(C2=C(O)C(=O)C(c3cn(C(C)(C)C=C)c4ccccc34)=C(O)C2=O)c2ccccc21 ?
Found: inactive

Lookup: Dear all, I need the recorded test outcome for COCn1cnc2c(=O)n(-c3ccc(OC)cc3)c(=S)n(-c3ccc(OC)cc3)c21 , thank you.
Found: inactive

Lookup: Recorded test call requested for CC1C(=O)NC(=O)CC(=O)NC1=O
Found: inactive

Lookup: Assay outcome for C=C(Br)C[N+](CC)(CC)CC : what was it?
Found: inactive

Lookup: Please let me know the test result on file for CCNC(=O)N(CC)CN(CC)C(=O)NCC .
Found: inactive

Lookup: Please indicate how the test categorized O=C1/C(=C/c2ccc(O)cc2)Oc2ccccc21 .
Found: inactive

Lookup: Short answer needed: outcome of this test for O=C1Cc2c([nH]c3ccc(Br)cc23)-c2ccccc2N1 ?
Found: inactive

Lookup: Call for entry CCCCS(=O)(=O)CCC(N)P(=O)(O)O (stereo unspecified) :
Found: inactive

Lookup: I would be grateful if you could indicate the recorded call for Cc1c(NC(=O)CSC(=S)N(C)C)c(=O)n(-c2ccccc2)n1C .
Found: inactive

Lookup: GET /call?item= COc1ccccc1Nc1nc(N)nc(N)c1N returns the recorded outcome of this test.
Found: inactive

Lookup: Which outcome did this test record for the compound COC(=O)CN1SC2(SC13C(C)(C)C(=O)C3(C)C)C(C)(C)C(=O)C2(C)C ?
Found: inactive

Lookup: Please share the test call associated with C=CCn1c(N)c(N=O)c(=O)n(C)c1=O .
Found: inactive

Lookup: Outcome? COc1ccc(N(C)C(=O)N(C)c2ccc([N+](=O)[O-])cc2)cc1
Found: inactive

Lookup: How did this test come out for c1ccc2c(-c3cccc4ccccc34)cccc2c1 ?
Found: inactive

Lookup: Given Cc1cc2c(C)c(-c3ccccc3)c(=O)oc2c(C#N)c1C , state the outcome it received in this test.
Found: inactive

Lookup: Returns: the outcome recorded for Nc1ccc(S(=O)(=O)Nc2nc3ccccc3nc2N2CCCCC2)cc1 in this assay.
Found: inactive

Lookup: # lookup: test call for COC(=O)N/N=C/c1oc(-c2cccc([N+](=O)[O-])c2)c(-c2cccc([N+](=O)[O-])c2)c1[N+](=O)[O-]
Found: inactive

Lookup: Hey, what did the test say about CC[N+](C)(CC)CCCC(C)N1C(=O)C2CCCCC2C1=O (stereo unspecified) ?
Found: inactive

Lookup: Which result was noted for this compound in the test: Cc1ccc2ccc3c(-c4ccccc4)cc(C)nc3c2n1
Found: inactive

Lookup: Lab log entry: CCC1(c2ccc(OC)c(OC)c2)CCN(S(=O)(=O)c2ccc(C)cc2)C1 (stereo unspecified) — outcome as called in the assay?
Found: inactive

Lookup: Check the results log: what was the call for Cc1cc2ccccc2n1CC(=O)N1CCCC1 ?
Found: inactive

Lookup: Returns: the outcome recorded for S=c1[nH]c(=S)c2nc(Nc3ccccc3)sc2[nH]1 in this assay.
Found: inactive

Lookup: Lab log entry: COc1nc2ncc([C@@H](OC(C)=O)[C@@H](COC(C)=O)OC(C)=O)nc2c(=O)n1C — outcome as called in the assay?
Found: inactive

Lookup: Would you mind telling me which call this test gave COC(=O)c1c([N+](=O)[O-])ncn1[C@H]1OC[C@@H](OC(C)=O)[C@@H](OC(C)=O)[C@@H]1OC(C)=O ?
Found: inactive

Lookup: Each compound tested received a call. Report the one for O=c1[nH]c(O)c(/C=N/C(=S)NCc2ccccc2)c(=O)[nH]1 .
Found: inactive

Lookup: GET /call?item= CCN(CC)CC(=O)Nc1cc(Cl)ccc1C returns the recorded outcome of this test.
Found: inactive

Lookup: Per the records of this test, what outcome belongs to C#CCN(N=O)C(=O)NC(CCCNC(=O)OCc1ccccc1)C(=O)OCc1ccccc1 (stereo unspecified) ?
Found: inactive

Lookup: # lookup: test call for CCCCCCCCCCCCCCCC1(OC)C[N+](C)(C)CCO1 (stereo unspecified)
Found: inactive

Lookup: Given COC(=O)C1C(=O)N(C)c2cc(C)c(C)cc2C1(C)C (stereo unspecified) , state the outcome it received in this test.
Found: inactive

Lookup: Fill in: this test's call for CC1(C)OC(=O)N(c2ccccc2)C12C=Cc1cc([N+](=O)[O-])cc([N+](=O)[O-])c1O2 (stereo unspecified) is ___
Found: inactive

Lookup: What outcome does the record of this test show for S=C(NNC1=NCCN1)Nc1ccccc1 ?
Found: inactive

Lookup: Recorded call for Cc1ccc2cc1NC(=O)N1CCN(CC1)C(=O)Nc1cc(ccc1C)NC(=O)N1CCN(CC1)C(=O)N2 ?
Found: inactive

Lookup: Called result for Nc1c(C(=O)O)nnc2ccc(Cl)cc12
Found: inactive

Lookup: Each compound tested received a call. Report the one for COC(=O)c1cc(CC2Cc3cc4c(cc3C2=O)CCC4)cc2c1CCC2 (stereo unspecified) .
Found: active

Lookup: Hey, what did the test say about COC1C(/C(=N\O)n2cnc3c(Cl)ncnc32)OC2OC(C)(C)OC21 (stereo unspecified) ?
Found: inactive

Lookup: Record lookup: outcome of this test for CN(C)CC[PH+](c1ccccc1)c1ccccc1.CN(C)CC[PH+](c1ccccc1)c1ccccc1.[Cl-].[Pd+2] ?
Found: inactive

Lookup: // param item: CC(=O)C(=[N+]=[N-])C(=O)OC(C)(C)C#N ; yields the recorded call
Found: inactive

Lookup: Outcome logged for OC(c1ccoc1)c1cc2ccccc2s1 (stereo unspecified) in this assay:
Found: inactive

Lookup: For O=C(CSc1nnc(-c2ccc(N=Cc3ccc(Cl)cc3)cc2)o1)Nc1ccccc1 , which call appears in the assay record?
Found: inactive

Lookup: Record request — test call for COc1ccc(NC(C)=O)c(Cl)c1
Found: inactive

Lookup: Hey, what did the test say about Clc1cccc(-c2nc3cccc4c3n2Cc2ncccc2-4)c1 ?
Found: inactive

Lookup: Any idea what this test logged for COc1ccc(C2=Nc3ccccc3SC(C)C2)cc1 (stereo unspecified) ?
Found: inactive

Lookup: // outcome(item) with item = CCOC(=O)C(=[N+]=[N-])C(=O)CN1C(=O)c2ccccc2C1=O
Found: inactive

* * *

- System: CEM cells HIV-1 protection, formazan growth assay
- test.summary: NCI AIDS Antiviral Assay;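 active = compounds giving half or more protection of infected cells from virus-caused growth loss, again on retest; inactive = the rest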
- Protocol: The ability of compounds to protect human CEM cells from HIV-1 infection is measured as a screen for new compounds capable of inhibiting the HIV virus. Five concentrations of drug were tested on uninfected and infected cells and cell growth was measured using a soluble formazan assay. […] Compounds that provided at least 50% protection were retested. Compounds that provided at least 50% protection on retest were listed as moderately active. […]
Select the matching outcome among class 1 (active), class 0 (inactive)

Lookup: Per the records of this test, what outcome belongs to O=C(CS)NCCNC(=O)CS ?
Found: class 0

Lookup: Hi, do you know how CN(C)c1ccc(/C(=N\N)c2ccccc2)cc1 came out in this test?
Found: class 0

Lookup: For CC(C)(C)OC(=O)NNCC(O)COc1ccccc1 (stereo not drawn) , which call appears in the assay record?
Found: class 0

Lookup: Returns: the outcome recorded for O=[N+]([O-])c1ccc2n[nH]nc2c1 in this assay.
Found: class 0

Lookup: Please state the recorded outcome for this molecule: COC(=O)C(=O)C(C(=O)C(=O)Nc1ccccc1C(N)=O)c1nc2ccc(C(=O)c3ccccc3)cc2[nH]c1=O (stereo not drawn)
Found: class 0

Lookup: // param item: CCOP(=O)(OCC)/C(C#N)=C/c1ccc(OC)cc1 ; yields the recorded call
Found: class 0

Lookup: I'd appreciate the recorded outcome for CN(C)C(=O)Nc1cc2c3c(c1)CCCN3CCC2 from this test.
Found: class 1

Lookup: Which outcome was assigned to COc1ccc(C(=O)c2ccccc2O)c(O)c1 in this test?
Found: class 0

Lookup: Recorded test outcome, item CC(C)N(CN1C(=O)N/C(=C/c2cccc(/C=C3/NC(=O)N(CN(C(C)C)C(C)C)C3=O)c2)C1=O)C(C)C
Found: class 1

Lookup: Test call, this molecule: O=Cc1cc(O)ccc1Br
Found: class 0

Lookup: Name the outcome recorded for Cn1cnc([N+](=O)[O-])c1Sc1nncc2[nH]cnc12 in the assay.
Found: class 0

Lookup: Lab log entry: Cn1c(=O)c2c(nc(N/N=c3\scc(-c4ccc(Cl)cc4)n3Cc3ccccc3)n2C)n(C)c1=O — outcome as called in the assay?
Found: class 0

Lookup: What was the test verdict on CN(C)/N=C1/CCC(C(F)(F)F)(C(F)(F)F)O1 ?
Found: class 0

Lookup: Which result was noted for this molecule in the test: NC(=O)c1ccccc1NC(=O)C(=O)Nc1n[nH]c(N)n1
Found: class 0

Lookup: Call for entry CC(NC(=O)c1ccccc1SC(=O)CCC[n+]1ccccc1)C(N)=O (stereo not drawn) :
Found: class 1

Lookup: Query: recorded result category for O=S(=O)(NCCSSCCNS(=O)(=O)c1ccccc1)c1ccccc1 in this test
Found: class 0

Lookup: How was [O-][n+]1c(CCl)nc2ccccc2c1-c1ccccc1F classified in this test?
Found: class 0

Lookup: Write down the call the test reported for this molecule. Item: CC(C)C(NC(=O)c1ccccc1SC(=O)CCCC[n+]1ccccc1)C(N)=O (stereo not drawn)
Found: class 1

Lookup: Lab log entry: Cn1cnnc1Sc1c([N+](=O)[O-])nc(-c2ccc([N+](=O)[O-])cc2)n1C — outcome as called in the assay?
Found: class 0

Lookup: For COc1cc2c3c(c1OC)-c1[nH]c4ccccc4c1C1CCCN(CC2)C31 (stereo not drawn) , what call appears in the results of this test?
Found: class 0

Lookup: Record request — test call for CCOP(=Nc1ccc(N(C)C)cc1)(OCC)OCC
Found: class 0

Lookup: For this molecule, state the assay outcome: COC12C(COC(N)=O)C3=C(C(=O)C(C)=C(N)C3=O)N1CC1C2N1C (stereo not drawn)
Found: class 0

Lookup: For Cc1ccc(-c2c(C#N)c(-c3ccccc3)c(C#N)c(=O)n2NS(=O)(=O)c2ccc(C)cc2)cc1 , what call appears in the results of this test?
Found: class 0

Numbers sourced from PubChem BioAssay AID179.
